assay: Lipophilicity, logD of compound in octanol-water at pH 7.4 by reverse phase HPLC analysis; type: physicochemical; details: read-out: logD
Binary label based on logD with cut-off 4: below gives Satisfied, not below gives Not satisfied.

INSERT INTO results (compound, label) VALUES
  ('CC1(C)[C@H](NC(=O)c2ccc(N3CCN(CC4CCN(c5ccc6c(c5)C(=O)N(C5CCC(=O)NC5=O)C6=O)CC4)CC3)cc2)C(C)(C)[C@H]1Oc1ccc(C#N)c(Cl)c1 (stereo partly specified)', 'Not satisfied'),
  ('Cc1ncsc1-c1ccc(CNC(=O)[C@@H]2C[C@@H](O)CN2C(=O)[C@@H](NC(=O)COCCOCCOCCNC(=O)C[C@@H]2N=C(c3ccc(Cl)cc3)c3c(sc(C)c3C)-n3c(C)nnc32)C(C)(C)C)cc1', 'Satisfied'),
  ('CC(C)(C)NC(=O)[C@@H]1C[C@@H]2CCCC[C@@H]2CN1C[C@@H](O)[C@H](Cc1ccccc1)NC(=O)[C@H](CC(N)=O)NC(=O)c1ccc2ccccc2n1', 'Not satisfied'),
  ('C=CCc1ccccc1OCC(O)CNC(C)C (stereo unspecified)', 'Satisfied'),
  ('N#Cc1ccc(O[C@H]2CC[C@H](NC(=O)c3ccc(N4CCC(CN5CCN(c6cc7c(cc6F)C(=O)N(C6CCC(=O)NC6=O)C7=O)CC5)CC4)nn3)CC2)cc1Cl (stereo partly specified) [BAVDEGALUTAMIDE]', 'Not satisfied'),
  ('Cc1ncsc1-c1ccc(CNC(=O)[C@@H]2C[C@@H](O)CN2C(=O)[C@@H](NC(=O)C2(F)CC2)C(C)(C)C)c(OCCOc2ccc(CN3CCN(c4cc(-c5ccccc5O)nnc4N)CC3)cc2)c1', 'Not satisfied');
